These entries and their values trace back to patent US20100267561A1.

Tested on: lambsquarters (Chenopodium album)
Experiment: Test B pre-/postemergence plant response
Format: in vivo
Settings: Preemergence, 31 g ai/ha; 0 to 100 scale, 0 no effect, 100 complete control
So I've got a bunch of compounds here, and I need their Plant response rating, Lambsquarters values.

Q: Plant response rating, Lambsquarters for Cc1cc(-c2ccc(C(F)(F)F)c(F)c2)nn1-c1c(O)c(C(F)(F)F)nn(C)c1=O [Compound 44] ?
Ans: 0

Q: Cc1cc(-c2ccc(Cl)cc2)nn1-c1c(OS(=O)(=O)c2ccccc2)cnn(C)c1=O [Compound 35] , same question.
Ans: 0

Q: Cc1cc(-c2ccc(Cl)cc2)nn1-c1c(OC(=O)c2cccc(Cl)c2)cnn(C)c1=O [Compound 32] , same question.
Ans: 0

Q: Cc1cc(-c2ccc(Cl)cc2)nn1-c1c(OS(=O)(=O)C(C)C)cnn(C)c1=O [Compound 50] , same question.
Ans: 100

Q: Cc1cc(-c2ccc(Cl)cc2)nn1-c1c(OS(=O)(=O)c2cccc3ccccc23)cnn(C)c1=O [Compound 47] , same question.
Ans: 0

Q: Cc1nn(C)c(=O)c(-n2nc(-c3ccc(Cl)cc3)cc2C)c1O [Compound 15] , same question.
Ans: 0

###

So I've got a bunch of compounds here, and I need their Wheat plant response rating values.
System: wheat (Triticum aestivum)
Test: Test B pre-/postemergence plant response
Format: in vivo
Details: 8 g ai/ha, postemergence; 0-100 scale
When you answer, write just the number.

Q: Wheat plant response rating for CCCc1cc(-c2ccc(Cl)cc2)nn1-c1c(O)cnn(C)c1=O [Compound 43] ?
Ans: 30

Q: Cc1cc(-c2ccc(Cl)cc2)nn1-c1c(OS(=O)(=O)c2ccccc2)cnn(C)c1=O [Compound 35] , same question.
Ans: 0

Q: CCc1c(C)c(-c2ccc(Br)cc2)nn1-c1c(O)cnn(C)c1=O [Compound 83] , same question.
Ans: 40

Q: CCc1cc(-c2ccc(Br)cc2)nn1-c1c(O)c(C)nn(C)c1=O [Compound 74] , same question.
Ans: 40

Q: Cn1ncc(O)c(-n2nc(-c3ccc(Cl)cc3)cc2C2CC2)c1=O [Compound 45] , same question.
Ans: 60

###

System: blackgrass (Alopecurus myosuroides)
Assay: Test B pre-/postemergence plant response
Format: in vivo
Settings: Preemergence, 16 g ai/ha; scale 0 to 100 (0 no effect, 100 complete control)
So I've got a bunch of compounds here, and I need their Plant response rating, Blackgrass values.
When you answer, write just the number.

Q: Plant response rating, Blackgrass for Cc1cc(-c2ccc(Cl)cc2)nn1-c1c(OS(=O)(=O)C(C)C)cnn(C)c1=O [Compound 50] ?
Ans: 0

Q: Cc1cc(-c2ccc(Cl)cc2)nn1-c1c(OC(=O)c2cccc(Cl)c2)cnn(C)c1=O [Compound 32] , same question.
Ans: 85

Q: Cc1ccc(-c2ccc(Cl)cc2)cc1-c1c(O)cnn(C)c1=O [Compound 46] , same question.
Ans: 30

Q: CCc1cc(-c2ccc(Cl)cc2)nn1-c1c(O)cnn(C)c1=O [Compound 21] , same question.
Ans: 100

Q: CCCc1cc(-c2ccc(C(F)(F)F)cc2)nn1-c1c(O)cnn(C)c1=O [Compound 72] , same question.
Ans: 90

###

System: goosegrass (Eleusine indica)
Experiment: Test B pre-/postemergence plant response
Assay type: in vivo
Settings: Preemergence, 62 g ai/ha; scale 0 to 100
So I've got a bunch of molecules here, and I need their Plant response rating, Goosegrass values.
When you answer, write just the number.

Q: Lab note: need Plant response rating, Goosegrass for Cc1cc(-c2ccc(C(F)(F)F)c(F)c2)nn1-c1c(O)c(C(F)(F)F)nn(C)c1=O [Compound 44] on goosegrass (Eleusine indica), anyone have it?
Ans: 0

Q: Cc1cc(-c2ccc(Cl)cc2)nn1-c1c(OC(=O)CC(C)C)cnn(C)c1=O [Compound 37] , same question.
Ans: 100

Q: Cc1cc(-c2ccc(Cl)cc2)nn1-c1c(OC(=O)c2cccs2)cnn(C)c1=O [Compound 52] , same question.
Ans: 0

Q: Cc1cc(-c2ccc(Cl)cc2)nn1-c1c(OC(=O)Oc2ccccc2)cnn(C)c1=O [Compound 54] , same question.
Ans: 0

Q: Cc1cc(-c2ccc(Cl)cc2)nn1-c1c(OS(=O)(=O)c2ccccc2)cnn(C)c1=O [Compound 35] , same question.
Ans: 100

Q: Cc1nn(C)c(=O)c(-n2nc(-c3ccc(Cl)cc3)cc2C)c1O [Compound 15] , same question.
Ans: 90

Q: Cn1ncc(O)c(-n2nc(-c3ccc(Cl)cc3)cc2C2CC2)c1=O [Compound 45] , same question.
Ans: 0

Q: CCc1cc(-c2ccc(C(F)(F)F)cc2)nn1-c1c(O)c(C)nn(C)c1=O [Compound 16] , same question.
Ans: 0
